Provide the reported viability, T/C of each item.
# Tested on: K98450-129-R-PDC complex spheroid growth, percent test/control;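 further: luminescence used as a proxy for viable cell amount; spheroids exposed to agents for seven days before the viability readout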
# test.method.notes: Anticancer human tumor K98450-129-R-PDC patient-derived colon adenocarcinoma cell line growth inhibition [RAS]
# measurement.setup: second compound 0.003 µM; first compound 0.03 µM; active compounds read low

Sample answers from the record:
CC1(C)CCC(Nc2ncc(C(F)(F)F)c(-c3c[nH]c4c(P(C)(C)=O)c(C#N)ccc34)n2)CN1 (centres undefined) + CCn1c(-c2cc(N3CCN(C)CC3)cnc2C(C)OC)c2c3cc(ccc31)-c1csc(n1)CC(NC(=O)C1CC1C)C(=O)N1CCCC(N1)C(=O)OCC(C)(C)C2
94.6%
CCc1c2c(nc3ccc(O)cc13)-c1cc3c(c(=O)n1C2)COC(=O)[C@]3(O)CC + CCn1c(-c2cccnc2C(C)OC)c2c3cc(ccc31)N1CCOC(CC(NC(=O)C(C(C)C)N(C)C(=O)C3(F)CCN(C(=O)C#CC(C)(C)N(C)C)CC3)C(=O)N3CCCC(N3)C(=O)OCC(C)(C)C2)C1
30.9%

# batch: return viability, T/C for each of the 2 compounds below
1. CC1(C)CCC(Nc2ncc(C(F)(F)F)c(-c3c[nH]c4c(P(C)(C)=O)c(C#N)ccc34)n2)CN1 (centres undefined) + CCn1c(-c2cccnc2C(C)OC)c2c3cc(ccc31)N1CCOC(CC(NC(=O)C(C(C)C)N(C)C(=O)C3(F)CCN(C(=O)C#CC(C)(C)N(C)C)CC3)C(=O)N3CCCC(N3)C(=O)OCC(C)(C)C2)C1
2. CCc1c2c(nc3ccc(O)cc13)-c1cc3c(c(=O)n1C2)COC(=O)[C@]3(O)CC + CCn1c(-c2cc(N3CCN(C)CC3)cnc2C(C)OC)c2c3cc(ccc31)-c1csc(n1)CC(NC(=O)C1CC1C)C(=O)N1CCCC(N1)C(=O)OCC(C)(C)C2

1. 67.7%
2. 54.7%
